test: Half life in human plasma at 500 mg, po by LC-MS/MS analysis; assay type: ADME, organism-based
reportedMetric: half-life (h)
Enter your answer as a number in h; do not include the unit.

Suppose we examine the compound CN(C)c1ccc2nc3ccc(N(C)C)cc3[s+]c2c1.[Cl-] [METHYLENE BLUE ANHYDROUS] ; what half-life value has been reported?
18.3

* * *

test system: Plasmodium vivax; assay: Antiplasmodial activity against Plasmodium vivax assessed as parasitic growth inhibition; type: functional, organism-based
reportedMetric: IC50

Param readout = IC50; param system = Plasmodium vivax; param query = CN(C)c1ccc2nc3ccc(N(C)C)cc3[s+]c2c1.[Cl-] [METHYLENE BLUE ANHYDROUS] ; response: value
1.2 nM

* * *

test: Elimination half life in human at 900 mg; assay type: ADME; conditions: read-out: beta t1/2 (converted)
reportedMetric: half-life (h)
Enter your answer as a number in h; do not include the unit.

Suppose we examine the compound Cc1nc(Nc2ncc(N3CCN(C)[C@H](C)C3)c(Nc3cc(C)n(C)n3)n2)cc(C2CC2)c1F ; what half-life value has been reported?
101

* * *

experiment: Elimination half life in Sprague-Dawley rat at 20 mg/kg, po by LC-MS/MS analysis; assay type: ADME, organism-based; conditions: in vivo, read-out: beta t1/2 (converted)
reportedMetric: half-life (days)
Enter your answer as a number in days; do not include the unit.

molecule | reportedMetric | reported
CCN(CC)CCCNc1ccnc2cc(Cl)ccc12 | half-life | 14.3

Suppose we examine the molecule CCN(CC)CCCC(C)Nc1ccnc2cc(Cl)ccc12 (configuration not stated) [CHLOROQUINE] ; what half-life value has been reported?
23.3

* * *

test: Oral absorption in human; type: ADME; conditions: read-out: Drug absorption
reportedMetric: Fa (%)
Enter your answer as a number in %; do not include the unit.

Suppose we examine the molecule C[C@H]1Cc2c([nH]c3cc(Cl)c(F)cc23)[C@@]2(N1)C(=O)Nc1ccc(Cl)cc12 ; what Fa value has been reported?
72.5

* * *

assay: Tmax in Sprague-Dawley rat at 20 mg/kg, po by LC-MS/MS analysis; format: ADME, organism-based; details: in vivo
Tmax by entry:
Enter your answer as a number in h; do not include the unit.

molecule | reported
CCN(CC)CCCNc1ccnc2cc(Cl)ccc12 | 4

Switching to the query record.
Suppose we examine the molecule CCN(CC)CCCC(C)Nc1ccnc2cc(Cl)ccc12 (configuration not stated) ; what Tmax value has been reported?
3

* * *

experiment: Half life in human; type: ADME
reportedMetric: half-life

Suppose we examine the molecule N=C(N)NC(=O)c1cc(C#Cc2ccc(C(F)(F)F)c(C(=O)Nc3ccccn3)c2)cc(C(F)(F)F)c1 ; what half-life value has been reported?
> 100 h

* * *

test system: Plasmodium falciparum; test: Antiplasmodial activity against chloroquine-resistant Plasmodium falciparum W2 assessed as parasitic growth inhibition; assay type: functional, organism-based
reportedMetric: IC50
State the value, then name its unit.

Suppose we examine the compound COc1cc(C)c2c(Oc3cccc(C(F)(F)F)c3)c(OC)cc(NC(C)CCCN)c2n1 (stereo unspecified) ; what IC50 value has been reported?
600 nM

* * *

experiment: Half life of compound; type: physicochemical
reportedMetric: half-life (h)
Enter your answer as a number in h; do not include the unit.

Suppose we examine the molecule CC(=O)N1CCN(c2ccc(CN(C(=O)/C=C/c3ccc(C(C)(C)C)cc3)[C@@H](Cc3ccccc3)C(=O)N3CCN(Cc4ccc(C#N)cc4)CC3)cc2)CC1 ; what half-life value has been reported?
34

Origin of the recorded values: ChEMBL document CHEMBL5380879
